This collection of values is drawn from ChEMBL document CHEMBL1201862.

- system: UniProtKB Q6QLK5
- Sequence (Q6QLK5 whole entry, the tested form may be a part): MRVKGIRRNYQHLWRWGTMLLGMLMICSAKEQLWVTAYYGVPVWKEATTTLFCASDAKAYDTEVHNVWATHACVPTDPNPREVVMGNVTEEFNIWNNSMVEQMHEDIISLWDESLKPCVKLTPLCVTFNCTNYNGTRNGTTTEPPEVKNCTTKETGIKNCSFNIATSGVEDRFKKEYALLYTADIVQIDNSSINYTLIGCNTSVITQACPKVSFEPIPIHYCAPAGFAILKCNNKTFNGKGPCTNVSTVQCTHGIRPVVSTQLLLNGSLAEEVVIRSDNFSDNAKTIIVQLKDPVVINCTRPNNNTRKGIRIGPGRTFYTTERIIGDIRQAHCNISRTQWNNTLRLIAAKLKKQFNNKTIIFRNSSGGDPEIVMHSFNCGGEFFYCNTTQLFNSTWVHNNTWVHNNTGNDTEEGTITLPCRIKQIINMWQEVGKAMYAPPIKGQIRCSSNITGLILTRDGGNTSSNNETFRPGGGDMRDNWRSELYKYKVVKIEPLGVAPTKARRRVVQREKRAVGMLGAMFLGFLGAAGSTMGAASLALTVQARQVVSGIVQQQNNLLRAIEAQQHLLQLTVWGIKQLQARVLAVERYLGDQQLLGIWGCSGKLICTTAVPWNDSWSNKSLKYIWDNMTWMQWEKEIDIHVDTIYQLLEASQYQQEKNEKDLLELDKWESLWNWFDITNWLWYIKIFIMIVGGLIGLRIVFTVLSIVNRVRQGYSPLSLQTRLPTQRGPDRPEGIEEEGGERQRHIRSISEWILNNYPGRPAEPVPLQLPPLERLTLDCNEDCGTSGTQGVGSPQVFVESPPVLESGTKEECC
- experimentDescription: inhibitors of HIV fusion peptide binding, primary screen, biochemical, uHTS, fluorescence dequenching (AID 1986)
Active and inactive are the calls of the source. No stated cut-off is given here; in the data, actives have a measured IC50 and inactives only a lower limit.
Listed molecules paired with reported IC50
measuredAttribute: IC50

{"structureNotation": "CC1=NN(c2ccc(C(=O)O)cc2)C(=O)/C1=C\\c1ccc(OC(=O)c2cccs2)cc1", "measuredAttribute": "IC50", "result": "12.6 µM (active)"}
{"structureNotation": "CC(C)NC(=O)c1sc(=S)n2c1[nH]c(=O)c1ccc(C(=O)NCCc3ccc(Cl)cc3)cc12", "measuredAttribute": "IC50", "result": "95.7 µM (active)"}
{"structureNotation": "O=C(O)COc1ccc(Br)cc1C(c1c(C(=O)O)[nH]c2ccccc12)c1c(C(=O)O)[nH]c2ccccc12", "measuredAttribute": "IC50", "result": "5.76 µM (active)"}
{"structureNotation": "COc1ccc(/N=C2\\S/C(=C\\c3ccc(OCC(=O)O)cc3)C(=O)N2CCc2c[nH]c3ccccc23)cc1", "measuredAttribute": "IC50", "result": "12.6 µM (active)"}
